Cited source: PubChem BioAssay

assay: viability loss with induced miR-34 in A549 – imaging, A549 dox-inducible miR-34, nuclei and caspase counts, primary screen (AID 1347080); settings: A549 miR-34 inducible, Hoechst nuclei count, 48 h; measured here: total cells with miR-34 induction; stronger effect = lower value
Assignment: determine reported cell count for the given compounds.
Give bare numbers.

Here are 10 compounds together with their reported answers.
OCC1OC(n2cnc3c(NC4CCCC4O)ncnc32)C(O)C1O (configuration not stated) : 9400
N#C/C(=C\c1ccc(O)c(O)c1)C(=O)c1ccc(O)c(O)c1 : 9140
COc1cc(CC2COC(=O)C2Cc2ccc(O)c(OC)c2)ccc1O (configuration not stated) : 8440
O=C1CN(c2ccc(C(F)(F)F)cn2)CCN1Cc1ccc2c(c1)OCO2 : 8410
Cc1ccc(S(=O)(=O)n2c(N)nc3ccccc32)cc1 : 6490
CC=C1C2C=C(C)C[C@]1(N)c1ccc(=O)[nH]c1C2 : 10100
CCCCCCCCCC(=O)OCC(CO)OC(=O)CCCCCCCCC (configuration not stated) : 4940
COCC(=O)NCC=Cc1ccc2ncnc(Nc3ccc(Oc4ccc(C)nc4)c(C)c3)c2c1 : 5970
CCCCCCCCCCCCCCCC(=O)N[C@H](CN1CCOCC1)[C@H](O)c1ccccc1 : 5590
CCCCNS(=O)(=O)c1ccccc1 : 8780

State the recorded cell count for every item in the following list.
1. Cc1[nH]c(C=C2C(=O)Nc3ccccc32)c(C)c1CCC(=O)O
2. c1ccc2c3c([nH]c2c1)[C@H]1C2CCC([C@@H]4CCCN[C@H]24)N1CC3 (some centres not stated)
3. COc1ccc(C(=O)N2CCN(C(=O)c3ccc4sc(N)nc4c3)CC2)cc1
4. CN1CC(O)C(O)C(O)C1CO (configuration not stated)
5. NC1=NC(=O)C(=Cc2ccc(-c3ccc(C(=O)O)cc3)o2)S1
6. CCCCCCCCCC(=O)OC[C@H](CO)OC(=O)CCCCCCCCC
7. O=C(CCc1ccncc1)NNC(=O)N1Cc2ccccc2Oc2ccc(Cl)cc21
8. CCOC(=O)C1OC1C(=O)NC(CC(C)C)C(=O)NCCC(C)C (configuration not stated)

[7040, 7540, 9050, 10300, 8530, 5260, 8820, 8060]

Hello, I would appreciate it if you could give cell count for each entry below.
1. CCCCC#Cc1nc(NC)c2ncn([C@@H]3O[C@H](CO)C(O)[C@@H]3O)c2n1 (some centres not stated)
2. O=c1cc(-c2ccccc2)[nH]c2nc(Cl)ccc12
3. CCCCCCCCCCCCCCCC(=O)C1=C(O)C(CO)OC1=O (configuration not stated)

10300
3650
5220

What cell count value was documented for this compound, C[C@@H]1C(=O)O[C@H]2CC34[C@H]5C[C@@H](C(C)(C)C)[C@]36[C@@H](OC(=O)[C@@H]6O)O[C@@]4(C(=O)O5)[C@]21O (some centres not stated) ?
9000

* * *

Answer each item with its documented z-score.
assay: MELAS cybrid and Rieske KO viability enhancers – cell-based, MELAS cybrids, Rieske KO mouse fibroblasts, CellTiter-Glo, primary screen (AID 1508586); details: Rieske KO mouse fibroblast survival, low glucose, CellTiter-Glo 72 h;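 note: z relative to plate mean and SD of compound and empty wells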
Give bare numbers.

Known results for compounds:
NC(=S)NN=Cc1ncccc1N : 3.3
CC(C)c1onc(-c2c(Cl)cccc2Cl)c1COc1ccc(C=Cc2cccc(C(=O)O)c2)c(Cl)c1 : -0.609
CC(=O)NCC1CN(c2ccc(N3CCOCC3)c(F)c2)C(=O)O1 (stereo unspecified) : 0.466
O=C(CC1=CCCCC1)N1CCc2c(cc(-c3cccc(F)c3)c(=O)n2CCN2CCCCC2)C1 : -0.152
O=c1[nH]cnc2sc3c(c12)CCCC3 : 0.0845

Pending compound:
What z-score value was documented for this compound, c1cc(CN2CCN3CCCC3C2)n(-c2nccs2)c1 (stereo unspecified) ?
-0.144

* * *

assay: MELAS cybrid and Rieske KO viability enhancers – cell-based, MELAS cybrids, Rieske KO mouse fibroblasts, CellTiter-Glo, primary screen (AID 1508586); details: Rieske KO mouse fibroblast survival, low glucose, CellTiter-Glo 72 h;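 note: z relative to plate mean and SD of compound and empty wells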
Answer each item with its documented z-score.
One number for each entry.

Use the examples below as a reference point.
CNC(=O)c1cc(Oc2ccc3nc(Nc4ccc(Cl)c(C(F)(F)F)c4)[nH]c3c2)ccn1 : -0.647
O=c1cc(-c2cccnc2)nc(-c2ccc(CN3CCCC(CO)C3)cc2)[nH]1 (stereo not given) : -0.608
Cn1nc(C(=O)N2CCCCC2)c2c1CCC(NCC1(c3ccccc3)CCOCC1)C2 (stereo not given) : 0.153

I need z-score for every entry listed below, if you could help.
1. CCc1nc(CNc2cc(C(=O)N[C@H](C)c3ccc(OC)cc3)cc(S(=O)(=O)N(C)C)c2)c(C)[nH]1
2. Cc1ccc(C(=O)NCCCCCC(=O)Nc2ccccc2N)cc1
3. CC(C)n1c(C=CC(O)CC(O)CC(=O)O)c(-c2ccc(F)cc2)c2ccccc21 (stereo not given)
4. CN1CCCC1CCNC(=O)[C@H]1CNC[C@@H](COc2cccc(F)c2)C1 (stereo not given in full)
5. NC(=O)C(CCC(F)(F)F)N(Cc1ccc(-c2ncon2)cc1F)S(=O)(=O)c1ccc(Cl)cc1 (stereo not given)
6. CCn1nc(C(=O)N2CCCC2)c2c1CCC(NCCC1=CCCCC1)C2 (stereo not given)
7. COc1cc(C2c3cc4c(cc3C(OC3OC5COC(c6cccs6)OC5C(O)C3O)C3COC(=O)[C@H]23)OCO4)cc(OC)c1O (stereo not given in full)

-0.167
-2
-1.97
0.269
0.74
-0.76
0.638

// each listed molecule needs a value for z-score
1. CNCc1ccc(C)c(NC(=O)c2ccc(Nc3nc(-c4ccccc4)c4ccccc4n3)cc2)c1
2. CC(C)(C)c1ccc(-c2nc3ccccc3[nH]2)cc1
3. COc1cccc(COC2CN(CCc3ccccc3)C(=O)CN(C(=O)CN3CCOC3=O)C2)c1 (stereo not given)
4. O=c1[nH]c(=O)n(C2CC(O)C(CO)O2)cc1I (stereo not given)
5. CCn1ncc2[nH]c(-c3cnn(C)c3-c3ccccc3)nc21
6. COCCn1cncc1CNc1nccc(-c2c(C)nn(C)c2C)n1
7. O=C(c1ccc(F)cc1)N1CCCC(c2nc(-c3ccc(F)cc3)no2)C1 (stereo not given)
8. CNS(=O)(=O)c1cc(NCc2cc3ccccc3s2)cc(C(=O)Nc2ccc(OC)cc2)c1

1: -0.107; 2: -3.26; 3: -0.325; 4: -0.483; 5: -0.221; 6: -0.0475; 7: -0.496; 8: 0.602

* * *

assay: growth inhibition, single agents and combos, LFS_MB_2R, cell-based, cisplatin combos, synergistic combos for chromothripsis tumors (AID 1671457); conditions: LFS_MB_2R medulloblastoma cells, at 0.5 µM, stronger effect = higher value;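 note: cells exposed to compound for four days before readout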
Category | rule: reported inhibition within range, see band 1 (below -20%), band 2 (-20% to below -10%), band 3 (-10% or more)

Answered examples (5):
C[C@@H]1COCCN1c1cc(C2(S(C)(=O)=O)CC2)nc(-c2cccc3[nH]ccc23)n1 : band 3
O=C(O)c1cc2cccc([N+](=O)[O-])c2[nH]1 : band 1
Nc1ccn(C2CCC(CO)O2)c(=O)n1 (stereo unspecified) : band 3
Cc1c(Br)cc(NCC(=O)N/N=C/c2cc([N+](=O)[O-])ccc2O)cc1Br : band 2
Nc1nc(NC2CC2)cc(-c2cccc(Cl)c2Cl)n1 : band 2

Assign a category based on measured inhibition for "Cc1ccc([N+](=O)[O-])cc1S(=O)(=O)N(C)/N=C\c1cnc2ccc(Br)cn12" and give only the class name.
band 3

Input CC1CNC(=O)NC1=O (stereo unspecified) ; output its category
band 1

Given "O=C1C(=Cc2cccnc2)C(=O)c2ccccc21" , name the class its inhibition places it in.
band 2

Which class holds "Cc1cc(C=CC#N)cc(C)c1Nc1ccnc(Nc2ccc(C#N)cc2)n1" ?
band 2

Each compound maps to one class by inhibition. Which class for CC(C)OC(=O)[C@H](C)NP(=O)(OC[C@H]1O[C@@H](n2ccc(=O)[nH]c2=O)C(C)(F)[C@@H]1O)Oc1ccccc1 (stereo partly specified) ?
band 1

* * *

assay: viability loss with induced miR-34 in A549 – imaging, A549 dox-inducible miR-34, nuclei and caspase counts, primary screen (AID 1347080); conditions: A549 miR-34 inducible, Hoechst nuclei count, 48 h; measured here: total cells with miR-34 induction; stronger effect = lower value
Quantity: cell count
Answers are plain numbers.

Examples from the recorded data:
C=CC1(C)CC(=O)C2(O)C(C)(O1)C(OC(C)=O)C(O)C1C(C)(C)CCC(O)C12C (centres undefined) : 9840
N#C/C(=C\c1ccc(O)c(O)c1)C(=O)NCCCNC(=O)/C(C#N)=C/c1ccc(O)c(O)c1 : 9720
CCn1cnc(NC(=O)N(C)CC2Cc3ccccc3O2)n1 (centres undefined) : 9520

Look up cell count for the entries below, preserving their order.
1. CCCCCCCC/C=C\CCCCCCCC(=O)OCC(CO)OC(=O)CCCCCCC/C=C\CCCCCCCC (centres undefined)
2. O=C(C=Cc1ccc(CN(CCO)CCc2c[nH]c3ccccc23)cc1)NO
3. CC(=O)OC1CC2CCC3C(CCC4(C)C3CC([N+]3(C)CCCCC3)C4OC(C)=O)C2(C)CC1[N+]1(C)CCCCC1 (centres undefined)
4. CCCCC/C=C\C/C=C\CC1OC1C/C=C\CCCC(=O)O (centres undefined)
5. Cn1c(=O)c2c(nc(/C=C/c3cccc(Cl)c3)n2C)n(C)c1=O
6. CC1C[C@H]2[C@@H]3CC(F)C4=CC(=O)C=C[C@]4(C)[C@]3(F)C(O)C[C@]2(C)[C@@]1(O)C(=O)CO (some centres undefined)

1: 5020; 2: 944; 3: 8890; 4: 5810; 5: 9630; 6: 4530
